- Measurement Description: Cytotoxicity against HEK293T cells assessed as cellular growth at 25 uM by MTT assay
- Assay type: cell-based, HEK-293T
- Condition Details: human, read-out: Activity
Value Kind: viability at 25 µM (%)
Output spec: scalar in %, unitless text.

What measured viability at 25 µM goes with CC(=O)Oc1cc(Cl)ccc1C(=O)Nc1ncc([N+](=O)[O-])s1 ? 100

Queued: O=C(Nc1nc2ccc([N+](=O)[O-])cc2s1)c1ccc([N+](=O)[O-])o1 100

Record: O=C(Nc1ncc([N+](=O)[O-])s1)c1cccs1 [TENONITROZOLE] 100

Another compound: COc1ccc(O)c(C(=O)Nc2ncc([N+](=O)[O-])s2)c1 100

How about O=C(Nc1ncc([N+](=O)[O-])s1)c1ccc([N+](=O)[O-])o1 ? 87.4

Try this compound next: O=C(Nc1ncc([N+](=O)[O-])s1)c1cc(Cl)cc(Cl)c1O 100

Also O=C(Oc1ccc(Cl)cc1C(=O)Nc1ncc([N+](=O)[O-])s1)c1ccccc1 , if possible. 72.2

Let us now turn to O=C(Nc1ncc([N+](=O)[O-])s1)c1ccc([N+](=O)[O-])s1 100

// repeat for COOc1ccc(-c2ccc(C(=O)Nc3ncc([N+](=O)[O-])s3)o2)cc1 and report 100

Please do the same for CC(=O)Oc1c(Cl)cc(Cl)cc1C(=O)Nc1ncc([N+](=O)[O-])s1 as well. 100

Next compound up: Cc1ccc(-c2ccc(C(=O)Nc3ncc([N+](=O)[O-])s3)o2)cc1 94.1

Data origin, for the record: ChEMBL document CHEMBL2203045
